SYSTEM_UNDER_TEST: PDE1B (Homo sapiens (Human))
Sequence (Q01064 whole entry): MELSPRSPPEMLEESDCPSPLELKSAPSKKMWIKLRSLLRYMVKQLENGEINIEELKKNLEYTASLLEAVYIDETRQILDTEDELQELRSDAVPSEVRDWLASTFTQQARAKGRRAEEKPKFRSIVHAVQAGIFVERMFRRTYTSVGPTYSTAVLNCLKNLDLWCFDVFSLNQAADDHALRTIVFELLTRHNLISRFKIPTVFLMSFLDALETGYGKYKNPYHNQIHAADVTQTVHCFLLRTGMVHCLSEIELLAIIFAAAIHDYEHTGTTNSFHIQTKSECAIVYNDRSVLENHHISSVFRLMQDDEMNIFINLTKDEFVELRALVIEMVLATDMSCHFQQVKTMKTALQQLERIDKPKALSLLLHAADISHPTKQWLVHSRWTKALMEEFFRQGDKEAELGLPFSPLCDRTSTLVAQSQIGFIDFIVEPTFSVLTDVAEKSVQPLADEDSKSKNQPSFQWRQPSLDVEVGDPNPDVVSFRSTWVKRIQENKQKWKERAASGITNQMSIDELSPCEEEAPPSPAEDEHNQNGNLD
MEASUREMENT_PROTOCOL: PDE1 inhibition assay (PDE1B)
Format: biochemical
CONDITION: 15 nM tritium labelled cAMP, 1 hr at room temperature, SPA beads; read-out: PDE1B, IC50
Using IC50 as the sorting value, the categories are low = under 0.2 nM, middle = from 0.2 nM up to 3 nM, high = 3 nM and over

Reference set, count: 3
CCOc1ncccc1-c1cc(NCc2ccnn2C)c2c(cnn2C(C)C)n1 ... high
CCOc1ncccc1-c1cc(CNc2ncn(C)n2)c2c(n1)c(C)nn2C(C)C ... high
CCOc1ncccc1-c1cc(NCc2nnc(C)s2)c2c(n1)c(C)nn2C(C)C ... middle

Hi, small favor: classify CCOc1ncccc1-c1cc(NCc2cc(CF)no2)c2c(n1)c(C)nn2C(C)C by its IC50 when you get a moment.
middle

Hi, small favor: classify CCOc1ncccc1-c1cc(NCc2ncc(C)o2)c2c(n1)c(C)nn2C(C)C by its IC50 when you get a moment.
middle

====

SYSTEM_UNDER_TEST: PDE1C (Homo sapiens (Human))
Sequence (Q14123 whole entry): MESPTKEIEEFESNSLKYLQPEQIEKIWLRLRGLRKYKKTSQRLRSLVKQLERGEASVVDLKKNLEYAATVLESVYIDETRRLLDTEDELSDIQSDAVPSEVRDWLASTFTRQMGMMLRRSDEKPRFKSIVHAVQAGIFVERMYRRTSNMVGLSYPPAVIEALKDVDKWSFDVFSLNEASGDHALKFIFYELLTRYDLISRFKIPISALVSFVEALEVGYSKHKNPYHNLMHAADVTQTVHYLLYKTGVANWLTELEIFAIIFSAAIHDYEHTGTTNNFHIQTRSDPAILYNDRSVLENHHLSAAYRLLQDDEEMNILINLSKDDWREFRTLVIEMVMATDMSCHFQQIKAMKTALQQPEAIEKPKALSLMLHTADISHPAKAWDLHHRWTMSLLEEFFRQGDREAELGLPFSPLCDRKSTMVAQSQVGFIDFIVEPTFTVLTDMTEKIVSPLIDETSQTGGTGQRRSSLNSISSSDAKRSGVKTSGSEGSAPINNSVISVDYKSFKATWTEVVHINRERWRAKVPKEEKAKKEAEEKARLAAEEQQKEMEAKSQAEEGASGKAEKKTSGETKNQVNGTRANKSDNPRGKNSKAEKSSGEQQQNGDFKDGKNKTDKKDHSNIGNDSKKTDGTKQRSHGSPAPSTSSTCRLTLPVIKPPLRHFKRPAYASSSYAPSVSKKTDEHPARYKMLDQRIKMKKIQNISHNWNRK
MEASUREMENT_PROTOCOL: biochemical
Format: biochemical
CONDITION: 15 nM tritium labelled cAMP, 1 hr at room temperature, SPA beads
READOUT_LABEL: IC50
# include the unit after the value

# example entries with known answers
CCOc1ncccc1-c1cc(OCc2cnc(C)o2)c2c(n1)c(C)nn2C(C)C ... 39 nM
CCCn1ncc2nc(-c3cccnc3OCC)cc(NCc3cnn(C)c3)c21 ... 340 nM
CCOc1ncccc1-c1cc(NCc2cnc(C)s2)c2c(n1)c(C)nn2C(C)C ... 6.2 nM
Cc1nn(C)cc1-c1cc(NCc2cnn(C)c2)c2c(n1)c(C)nn2C(C)C ... 680 nM
CCOc1ncccc1-c1cc(NCc2nncn2C)c2c(n1)c(C)nn2C(C)C ... 180 nM

State its IC50: Cc1nn(C(C)C)c2c(NCc3cnn(C)c3)cc(-c3ncco3)nc12
36 nM

State its IC50: CCOc1ncccc1-c1cc(NCc2csc(C)n2)c2c(n1)c(C)nn2C1COC1
130 nM

State its IC50: CCOc1ncccc1-c1cc(NCc2cccnc2C(F)(F)F)c2c(n1)c(C)nn2C(C)C
64 nM

====

SYSTEM_UNDER_TEST: PDE1A (Homo sapiens (Human), UniProt P54750)
Sequence (P54750 whole entry): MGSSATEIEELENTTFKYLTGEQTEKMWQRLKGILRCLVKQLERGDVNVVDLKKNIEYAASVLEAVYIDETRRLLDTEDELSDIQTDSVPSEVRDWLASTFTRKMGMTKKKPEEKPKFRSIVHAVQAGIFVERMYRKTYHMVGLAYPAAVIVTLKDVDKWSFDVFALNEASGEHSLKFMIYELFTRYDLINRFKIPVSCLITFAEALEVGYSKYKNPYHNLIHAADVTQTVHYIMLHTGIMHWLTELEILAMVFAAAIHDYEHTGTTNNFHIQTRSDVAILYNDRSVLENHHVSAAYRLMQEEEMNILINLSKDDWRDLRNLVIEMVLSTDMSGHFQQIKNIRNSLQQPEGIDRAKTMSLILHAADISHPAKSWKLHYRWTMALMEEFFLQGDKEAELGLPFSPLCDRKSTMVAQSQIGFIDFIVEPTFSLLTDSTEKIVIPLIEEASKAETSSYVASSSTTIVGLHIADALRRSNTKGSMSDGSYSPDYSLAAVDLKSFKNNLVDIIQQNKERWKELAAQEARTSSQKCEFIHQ
MEASUREMENT_PROTOCOL: biochemical
Assay type: biochemical
CONDITION: 15 nM tritium labelled cAMP, 1 hr at room temperature, SPA beads
pIC50: −log10 of the molar value.
# pIC50 >= 7 gives fulfilled, anything below gives not fulfilled

CCOc1ncccc1-c1cc(NCc2nnc(C)o2)c2c(n1)c(C)nn2C(C)C ... fulfilled
COc1ncccc1CNc1cc(-c2cccnc2OC2CC2)nc2c(C)nn(C(C)C)c12 ... fulfilled
CCOc1ncccc1-c1cc(NCc2ncon2)c2c(n1)c(C)nn2C(C)C ... fulfilled

# bool: pIC50 of CCOc1ncccc1-c1cc(NCc2nccs2)c2c(cnn2C(C)C)n1 >= 7
not fulfilled

# bool: pIC50 of CCOc1ncccc1-c1cc(NCc2ncc(C)o2)c2c(n1)c(C)nn2C(C)C >= 7
fulfilled

# bool: pIC50 of CCOc1ncccc1-c1cc(NCc2cnccn2)c2c(n1)c(C)nn2C(C)C >= 7
fulfilled

# bool: pIC50 of Cc1nn(C(C)C)c2c(NCc3cnn(C)c3)cc(-c3cnn(C)c3C)nc12 >= 7
not fulfilled

# bool: pIC50 of CCOc1ncccc1-c1cc(NCc2c[nH]c(C)n2)c2c(n1)c(C)nn2C(C)C >= 7
fulfilled

# bool: pIC50 of CCOc1ncccc1-c1cc(NCc2nc[nH]n2)c2c(n1)c(C)nn2C(C)CC (single isomer, unassigned) >= 7
fulfilled

# bool: pIC50 of Cc1nn(C(C)C)c2c(NCc3cnn(C)c3)cc(-c3ncnn3C)nc12 >= 7
not fulfilled

# bool: pIC50 of CCOc1ncccc1-c1cc(NCc2cccc(OC)n2)c2c(n1)c(C)nn2C(C)C >= 7
fulfilled

# bool: pIC50 of CCOc1ncccc1-c1cc(NCc2ccccc2C(F)(F)F)c2c(n1)c(C)nn2C(C)C >= 7
not fulfilled

# bool: pIC50 of CCOc1ncccc1-c1cc(NCc2cnc(C)o2)c2c(n1)c(C)nn2C(C)C >= 7
fulfilled

# bool: pIC50 of CCCn1cc(CNc2cc(-c3cccnc3OCC)nc3c(C)nn(C(C)C)c23)cn1 >= 7
fulfilled

# bool: pIC50 of CCOc1ncccc1-c1cc(NCc2cn(C)cn2)c2c(cnn2C(C)C)n1 >= 7
fulfilled

# bool: pIC50 of CCOc1ncccc1-c1cc(NCc2cccc(C)n2)c2c(n1)c(C)nn2C(C)C >= 7
fulfilled

# bool: pIC50 of CCOc1ncccc1-c1cc(NCc2cc(C)cs2)c2c(n1)c(C)nn2C(C)C >= 7
fulfilled
